// provenance: patent US6906193B2

Tested on: formalin-induced nocifensive behaviours
Assay: Formalin test
Type: in vivo, rats
Settings: Rattus norvegicus, po; 30 mg/kg, p.o.; rats; read-out: IPT (Formalin)
Experimental: The Formalin test assesses the inhibitory effects of orally administered N-type calcium channel antagonists on formalin-induced nocifensive behaviours in rats. […] The procedure for the formalin test is as follows: male rats are placed in a plexiglass chamber and observed for 30-45 min. to observe their baseline activity. […] The number of paw flinches and licks during first phase (0-5 min.) and second phase (20-35 min.) are scored and recorded. […]
READOUT TYPE: inhibition in vivo at 30 mg/kg (%)

> print(dat)
                       mol.smiles                        system.under.test  endpoint.unit  readout.value
1   Nc1cc(-c2cccc(F)c2)nc2ccccc12  formalin-induced nocifensive behaviours              %             41
2  CNc1cc(-c2cccc(F)c2)nc2ccccc12  formalin-induced nocifensive behaviours              %             46
3   Cc1cccc(-c2cc(N)c3ccccc3n2)c1  formalin-induced nocifensive behaviours              %             13
4   Nc1ccc2nc(-c3ccccc3)cc(N)c2c1  formalin-induced nocifensive behaviours              %             28
